Data origin: ChEMBL document CHEMBL5512648

- Experimental details: Cmax in ICR mouse plasma at 50 mg/kg, po measured upto 24 hrs by LC-MS/MS analysis
- Format: ADME, organism-based

[
  {
    "Structure smiles": "O=C(c1ccnc2ccc(Br)cc12)N1CCC[C@H]1CNS(=O)(=O)C(F)(F)F",
    "Cmax [ng/mL]": 3460
  },
  {
    "Structure smiles": "O=C(c1ccnc2ccc(-c3ccnc(F)c3)cc12)N1CCC[C@H]1CNS(=O)(=O)C(F)(F)F",
    "Cmax [ng/mL]": 8190
  },
  {
    "Structure smiles": "O=C(c1ccnc2ccc(C3CC3)cc12)N1CCC[C@H]1CNS(=O)(=O)C(F)(F)F",
    "Cmax [ng/mL]": 4520
  }
]
